Assay: AUC in Sprague-Dawley rat at 10 mg/kg, po
Type: ADME, organism-based
Design: dose 10 mg/kg, route oral
Details: plasma
reported_property: AUC (µM·h)
Just the number in µM·h, nothing appended.

[in] Please give the measured AUC for this compound: Cc1cc2c(-c3ccc[nH]c3=O)c(C(=O)[O-])n(Cc3cc4ccccc4nc3Cl)c2cc1F.[Na+]
[out] 35

----------
Test: AUC in fed cynomolgus monkey at 30 mg/kg, po
Format: ADME, organism-based, Macaca fascicularis
Set-up: dose 30 mg/kg, route oral
Conditions: plasma
reported_property: AUC (µM·h)
Just the number in µM·h, nothing appended.

[in] Please give the measured AUC for this compound: Cc1cc2c(-c3ccc[nH]c3=O)c(C(=O)O)n(Cc3cc4ccccc4nc3Cl)c2cc1F
[out] 15

----------
Experiment: Cmax in fed cynomolgus monkey at 30 mg/kg, po
Format: ADME, organism-based, Macaca fascicularis
Design: dose 30 mg/kg, route oral
Details: in vivo
reported_property: Cmax (nM)
Just the number in nM, nothing appended.

[in] Please give the measured Cmax for this molecule: Cc1cc2c(-c3ccc[nH]c3=O)c(C(=O)O)n(Cc3cc4ccccc4nc3Cl)c2cc1F
[out] 1300

----------
Assay: Cmax in fed Sprague-Dawley rat at 500 mg/kg, po
Assay type: ADME, organism-based
Parameters: dose 500 mg/kg, route oral
Settings: in vivo
reported_property: Cmax (µM)
Just the number in µM, nothing appended.

[in] Please give the measured Cmax for this compound: Cc1cc2c(-c3ccc[nH]c3=O)c(C(=O)O)n(Cc3cc4ccccc4nc3Cl)c2cc1F
[out] 65

----------
Assay: Cmax in fed cynomolgus monkey at 10 mg/kg, po
Type: ADME, organism-based, Macaca fascicularis
Design: dose 10 mg/kg, route oral
Conditions: in vivo
reported_property: Cmax (nM)
Just the number in nM, nothing appended.

[in] Please give the measured Cmax for this compound: Cc1cc2c(-c3ccc[nH]c3=O)c(C(=O)O)n(Cc3cc4ccccc4nc3Cl)c2cc1F
[out] 900

----------
Test: Cmax in fed Sprague-Dawley rat at 250 mg/kg, po
Assay type: ADME, organism-based
Parameters: dose 250 mg/kg, route oral
Conditions: in vivo
reported_property: Cmax (µM)
Just the number in µM, nothing appended.

[in] Please give the measured Cmax for this compound: Cc1cc2c(-c3ccc[nH]c3=O)c(C(=O)O)n(Cc3cc4ccccc4nc3Cl)c2cc1F
[out] 66

----------
Test: AUC in cynomolgus monkey at 3 mg/kg, po
Type: ADME, organism-based, Macaca fascicularis
Set-up: dose 3 mg/kg, route oral
Conditions: plasma
reported_property: AUC (µM·h)
Just the number in µM·h, nothing appended.

[in] Please give the measured AUC for this molecule: Cc1cc2c(-c3ccc[nH]c3=O)c(C(=O)[O-])n(Cc3cc4ccccc4nc3Cl)c2cc1F.[Na+]
[out] 11.5

----------
Hi there, I'd appreciate the recorded pEC50 for every entry that follows.
Tested on: Hepatitis C virus
Experiment: Antiviral activity against HCV Con1 in eplicon cells after 3 days by RT-PCR analysis
Assay type: functional, organism-based, Hepacivirus hominis
Conditions: isolate Con1, 72 h
Value format note: pEC50 is -log10 of concentration (mol/L); just state the number.

[in] Please give the measured pEC50 for this compound: Cc1cc2c(-c3ccc[nH]c3=O)c(C(=O)O)n(Cc3cc4cc(F)c(F)cc4nc3Cl)c2cc1F
[out] 7.52

[in] Please give the measured pEC50 for this compound: COc1ccc2cc(Cn3c(C(=O)O)c(-c4ccc[nH]c4=O)c4cc(C)c(F)cc43)c(Cl)nc2c1
[out] 8.00

[in] Please give the measured pEC50 for this compound: Cc1cc2c(-c3ccc[nH]c3=O)c(C(=O)O)n(Cc3cc4ccccc4nc3Cl)c2cc1F
[out] 8.52

[in] Please give the measured pEC50 for this compound: Cc1cc2c(-c3ccc[nH]c3=O)c(C(=O)O)n(Cc3cnc4ccccc4c3Cl)c2cc1F
[out] 7.70

[in] Please give the measured pEC50 for this compound: Cc1cc2c(-c3ccc[nH]c3=O)c(C(=O)O)n(Cc3cc(F)cnc3Cl)c2cc1F
[out] 6.00

[in] Please give the measured pEC50 for this compound: Cc1ccc2nc(Cl)c(Cn3c(C(=O)O)c(-c4ccc[nH]c4=O)c4cc(C)c(F)cc43)cc2c1
[out] 7.60

[in] Please give the measured pEC50 for this compound: Cc1cc2c(-c3ccc[nH]c3=O)c(C(=O)O)n(Cc3cc4ccc(F)cc4nc3Cl)c2cc1F
[out] 7.70
